meta.source: patent US20220315572A1

molecular target: Cathepsin K (Homo sapiens); test: Cathepsin IC50, cathepsin K; type: biochemical
Sequence (P43235 115-329, species assumed): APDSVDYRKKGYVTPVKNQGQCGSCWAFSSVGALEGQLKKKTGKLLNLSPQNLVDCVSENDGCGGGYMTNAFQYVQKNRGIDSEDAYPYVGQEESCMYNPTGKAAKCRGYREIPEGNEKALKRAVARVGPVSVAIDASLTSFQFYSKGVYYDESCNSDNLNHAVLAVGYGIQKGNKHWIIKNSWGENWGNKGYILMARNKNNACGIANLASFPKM
observation.type: log10 of IC50 (log10 of the value in µM)
Hey, these are logged values: log10 of IC50, µM being the unit before logging.

Please review the following examples before continuing.
For COC[C@@H]1C[C@@H](NC(=O)c2nnc(-c3cc(C#N)ccc3OC)o2)CN1C#N [Example 4] , write its log10 of IC50.
1.65

For N#CN1CC[C@H](C(=O)Nc2ncc(-c3ccccc3)s2)C1 [E, reference compound] , write its log10 of IC50.
0.43

For C[C@H]1CN(C#N)C[C@@H]1NC(=O)c1cnc(-c2ccccc2)s1 [C, reference compound] , write its log10 of IC50.
0.38

For N#CN1CCC(C(=O)Nc2nnc(-c3ccccc3)s2)C1 (stereo not shown) [F, reference compound] , write its log10 of IC50.
-0.07

For C[C@@H]1C[C@@H](NC(=O)c2nnc(-c3cccc(C#N)c3)o2)CN1C#N [Example 1] , write its log10 of IC50.
1.42

Moving on to the next molecule.
For COc1ccc(C#N)cc1-c1nnc(C(=O)N[C@@H]2C[C@@H](C)N(C#N)C2)o1 [Example 5] , write its log10 of IC50.
1.39

---

target: USP30 (Homo sapiens); construct: purchased Boston Biochem E582; experiment: USP30 biochemical IC50 assay (fluorescence polarisation); details: Reference Examples; read-out: USP30 IC50
Sequence (Q70CQ3 57-517 limits assumed): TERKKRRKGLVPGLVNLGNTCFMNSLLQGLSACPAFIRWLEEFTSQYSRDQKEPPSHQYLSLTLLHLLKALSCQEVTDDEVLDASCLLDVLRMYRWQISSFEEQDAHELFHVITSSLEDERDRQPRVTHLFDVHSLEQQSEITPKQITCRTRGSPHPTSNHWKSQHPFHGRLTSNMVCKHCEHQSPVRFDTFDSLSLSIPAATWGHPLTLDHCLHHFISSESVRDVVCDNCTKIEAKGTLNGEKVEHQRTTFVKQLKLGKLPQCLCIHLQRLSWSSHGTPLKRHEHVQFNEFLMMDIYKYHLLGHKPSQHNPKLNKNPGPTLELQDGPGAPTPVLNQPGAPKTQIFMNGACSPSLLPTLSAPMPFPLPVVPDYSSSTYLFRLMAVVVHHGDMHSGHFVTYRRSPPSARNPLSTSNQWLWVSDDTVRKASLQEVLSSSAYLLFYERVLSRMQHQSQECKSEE
observation.type: IC50 (nM)
Write the value in nM as a bare number.

For COc1cccc(-c2cc(C(=O)N[C@@H]3CCN(C#N)C3)on2)c1 [A, reference compound] , write its IC50.
70

For N#CN1CCC(NC(=O)c2cc(-c3cccc(Cl)c3)no2)C1 (stereo not shown) [B, reference compound] , write its IC50.
44

For CC1CC(C(=O)Nc2ncc(-c3ccccc3)s2)CN1C#N (stereo not shown) [G, reference compound] , write its IC50.
4400

For N#Cc1cccc(-c2ccn3c(C(=O)N[C@@H]4CCN(C#N)C4)cnc3c2)c1 [D] , write its IC50.
41

For C[C@H]1CN(C#N)C[C@@H]1NC(=O)c1cnc(-c2ccccc2)s1 [C, reference compound] , write its IC50.
26

For N#CN1CC[C@H](C(=O)Nc2ncc(-c3ccccc3)s2)C1 [E, reference compound] , write its IC50.
310

Moving on to the next compound.
For N#CN1CCC(C(=O)Nc2nnc(-c3ccccc3)s2)C1 (stereo not shown) [F, reference compound] , write its IC50.
700

---

We begin with a simple list: items and their reported Selectivity preference for USP30 v cathepsins.
system: Cathepsins B, K, L, S, V; experiment: Cathepsin IC50, range over B, K, L, S, V; type: biochemical; settings: range over cathepsins B, K, L, S, V

Please review the following examples before continuing.
For COC[C@@H]1C[C@@H](NC(=O)c2nnc(-c3cc(C#N)ccc3OC)o2)CN1C#N [Example 4] , write its Selectivity preference for USP30 v cathepsins.
1500-7800

For COc1cccc(-c2cc(C(=O)N[C@@H]3CCN(C#N)C3)on2)c1 [A, reference compound] , write its Selectivity preference for USP30 v cathepsins.
11-126

For N#Cc1cccc(-c2ccn3c(C(=O)N[C@@H]4CCN(C#N)C4)cnc3c2)c1 [D] , write its Selectivity preference for USP30 v cathepsins.
56-168

For COC[C@@H]1C[C@@H](NC(=O)c2nnc(-c3cccc(C#N)c3)o2)CN1C#N [Example 2] , write its Selectivity preference for USP30 v cathepsins.
880-8100

For N#CN1CC[C@H](C(=O)Nc2ncc(-c3ccccc3)s2)C1 [E, reference compound] , write its Selectivity preference for USP30 v cathepsins.
3.2-17

For N#CN1CCC(NC(=O)c2cc(-c3cccc(Cl)c3)no2)C1 (centres unmarked) [B, reference compound] , write its Selectivity preference for USP30 v cathepsins.
18-95

Others:
For COc1ccc(C#N)cc1-c1nnc(C(=O)N[C@@H]2C[C@@H](C)N(C#N)C2)o1 [Example 5] , write its Selectivity preference for USP30 v cathepsins.
720-8800

For C[C@H]1CN(C#N)C[C@@H]1NC(=O)c1cnc(-c2ccccc2)s1 [C, reference compound] , write its Selectivity preference for USP30 v cathepsins.
58-227
